System: A498 renal
assay-name: NCI tumour cell line growth inhibition, 48 h
Entries and their TGI

Some solved cases for reference:
* Cc1ccc(S(=O)(=O)/N=C(\N)N(C)N=O)cc1 | > 100 µM
* O=C(c1cc2ccccc2o1)N(Cc1ccccc1)c1ccccc1 | 89.1 µM
* CC(=O)OCC(=O)O[C@@H]1C[C@]2(C(C)C)O[C@@]1(C)[C@@H]1CC[C@@H](C)[C@H]1[C@@H]2OC(=O)/C=C/c1ccccc1 | 0.472 µM

Tell me its TGI given Cc1cccc2c(N)c3cccc(C(=O)NCC[N+](C)(C)Cc4sccc4[N+](=O)[O-])c3nc12 as the entry.
> 100 µM

Please report the measured TGI for C1=Nc2sc3c(c2C2=NCCN12)CCCC3
46.6 µM

Give the value of TGI reported for the following: C/C(=N\N=C(\[Se])N1CCN(c2ccccn2)CC1)c1ccccn1
18.1 µM

Return value of TGI for input CC(=O)C1=C(C)Cn2c(=O)c3ccccc3c(=O)n2C1 , no commentary.
> 100 µM

Please supply the value of reported TGI for the item CN=C(NC#N)NCCSCc1nc[nH]c1C
> 100 µM

Check the records and state TGI for O=C(O)Cc1cccc2c1Oc1ccccc1S2
> 100 µM

Quickly give me recorded TGI for O=C(O)CCSCc1ccc(I)cc1
> 100 µM

Indicate the recorded TGI value for this compound: Cc1ccc(/C(=C\C(=O)C(=O)NC23CC4CC(CC(C4)C2)C3)Sc2ccccc2)cc1
> 10 µM

---

Parameter: TGI. Scope: all listed entries.
Tested on: SK-MEL-2 melanoma
assay-name: NCI tumour cell line growth inhibition, 48 h

Worked cases, TGI given:
• C[C@]12CCc3nonc3C1CC[C@@H]1C2CC[C@]2(C)NC(=O)CCC12 (stereo partly specified) = > 100 µM
• CC(C)OC(=O)C1=C(O)c2ccccc2S(=O)(=O)N1 = > 100 µM
• O=C(c1cc2ccccc2o1)N(Cc1ccccc1)c1ccccc1 = > 100 µM

Consider the molecule Cn1c(O)c(C(/C=C/c2ccccc2)=NCCN=C(/C=C/c2ccccc2)c2c(O)n(C)c(=O)n(C)c2=O)c(=O)n(C)c1=O and give its recorded TGI.
> 50 µM

Provide one value: measured TGI of COc1ccc(C2=NN(C(=O)c3cc(OC)c(OC)c(OC)c3)C(c3ccc(Cl)cc3)C2)cc1OC (stereo unspecified)
63.6 µM

Given the molecule O=C1C(C(c2ccccc2)N2CCOCC2)=C(O)C(c2ccccc2)N1c1ccccc1 (stereo unspecified) , write its reported TGI.
> 10 µM

---

System: OVCAR-4 ovarian
assay-name: NCI tumour cell line growth inhibition, 48 h
Where a SMILES comes first, the peptide text is derived from it. The star is where a group is joined. Pentanoyl = CCCCC(=O)*; Boc = CC(C)(C)OC(=O)*
Each entry below carries its recorded TGI.

- CCCCC(=O)Oc1ccc(CC(NC(=O)OC(C)(C)C)C(=O)NC(C)C(=O)NC(Cc2ccccc2)C(=O)NCC(N)=O)cc1 (stereo unspecified) (Boc-Y(Pentanoyl)AFG-NH2; configuration not given here): > 100 µM

Give the reported TGI for this compound. Cc1nn(C(=O)c2ccc(Cl)cc2)c2c1C(c1cccc([N+](=O)[O-])c1)SC(N)=N2 (stereo unspecified)
> 10 µM

Answer with reported TGI of Cc1cc2c(cc1C)[n+](=O)c(C#N)c(Cl)n2[O-]
31.2 µM

Tell me TGI reported for Fc1ccc(OCc2nc3cc(C(F)(F)F)ccc3nc2-c2ccccc2)cc1
> 100 µM

For the compound CC(=O)OC(C)c1cc2c(s1)C(=O)c1scc(C(C)OC(C)=O)c1C2=O (stereo unspecified) , give its measured TGI value.
0.583 µM

Let me know recorded TGI for O=C(c1ccccc1)c1ccc(OCCOc2ccc(Nc3ccccc3)cc2)cc1 , thanks.
54.8 µM

---

Tested on: SF-539 CNS
assay-name: NCI tumour cell line growth inhibition, 48 h
Here the recorded TGI is given for each entry.

These recorded examples may help you get a feel for the data.
* O=C(CCCN1CCC2(CC1)NC(=O)c1ccccc1O2)c1ccc(F)cc1 | > 100 µM
* COc1c(NC(C)=O)cc(C)cc1NC(C)=O | > 100 µM
* COC(=O)C1C(OC(=O)C(Cl)(c2ccccc2)c2ccccc2)CC2CCC1N2C (configuration not stated) | > 100 µM
* Cc1cc2c(cc1C)[n+](=O)c(C#N)c(Cl)n2[O-] | 28.2 µM
* CCSC1(SCC)CC(Cc2ccc(OC)cc2)N(C=NC(C)(C)C)C1 (configuration not stated) | > 100 µM
* COc1ccc(C(=O)C(C(=O)C(=O)Nc2ccc(Cl)c(Cl)c2)c2ccc(OC)cc2)cc1 (configuration not stated) | > 100 µM

Could you now look at the following molecule, please?
Specify reported TGI for the molecule shown: CN(N=O)C(=O)N[C@@H](C=O)[C@@H](O)[C@H](O)[C@H](O)CO
> 750 µM

---

System: MOLT-4 leukemia
assay-name: NCI tumour cell line growth inhibition, 48 h
outcome-measure: TGI

• CC1(C)CCc2cc3c(cc2O1)OCC1c2cc4c(cc2OC31)OCO4 (stereo not drawn) = > 100 µM

Fill in reported TGI for this entry: O=C1c2ccccc2C(=O)c2c(NCCNCCO)ccc(O)c21
7.49 µM

Give me measured TGI, please, for this compound: CO/N=C(/C(=O)N(C(=O)/C(=N/OC)c1csc(NC(c2ccccc2)(c2ccccc2)c2ccccc2)n1)n1cnn(CC(=O)OC(C)(C)C)c1=O)c1csc(NC(c2ccccc2)(c2ccccc2)c2ccccc2)n1
> 10 µM

Supply measured TGI of O=c1oc2ccccc2c(O)c1C1c2c(c3ccccc3oc2=O)Oc2c1c(=O)oc1ccccc21 in your reply.
> 100 µM

Please look at this compound and report its TGI: COc1c(NC(C)=O)cc(C)cc1NC(C)=O
> 100 µM

State its TGI: C[C@@H]1CC[C@@H]2[C@@H]1[C@H](OC(=O)/C=C/c1ccccc1)[C@]1(C3CCCCC3)C[C@@H](NC(=O)CO)[C@@]2(C)O1
39.3 µM

Give the reported value of TGI for this record: CC/C(=C(/CC)c1ccc([O-])cc1)c1ccc([O-])cc1.CC/C(=C(\CC)c1ccc([O-])cc1)c1ccc([O-])cc1.O=C([CH-]C(=O)c1ccccc1)c1ccccc1.O=C([CH-]C(=O)c1ccccc1)c1ccccc1.O=C([CH-]C(=O)c1ccccc1)c1ccccc1.O=C([CH-]C(=O)c1ccccc1)c1ccccc1.[Ti+4].[Ti+4]
> 100 µM

Check the records and state TGI for c1ccc(C2SCc3nc4cc5ccccc5cc4n32)cc1 (stereo not drawn)
> 100 µM

Item CC(=O)OC[C@@H]1[C@H]2CC[C@]3(C)[C@@H](OC(C)=O)CC[C@H]3[C@@H]2CC[C@H]1C1(C)SCCS1 : provide TGI
> 25 µM

Note down TGI recorded for Cc1nn(C(=O)c2ccc(Cl)cc2)c2c1C(c1cccc([N+](=O)[O-])c1)SC(N)=N2 (stereo not drawn)
> 10 µM

Identify the reported TGI for the following entry. O=C(CCl)NC(Cc1ccc(F)cc1)C(=O)O (stereo not drawn)
> 100 µM

Determine from records and report TGI for COc1ccc2c(c1)C(=O)c1c-2c(Nc2ccc(C(C)=O)cc2)nc2ccccc12
> 100 µM

Given the compound O=C1C(c2c(O)[nH]c3ccc(S(=O)(=O)O)cc23)=Nc2ccc(Br)cc21 , write its reported TGI.
> 100 µM

---

System: UACC-257 melanoma
assay-name: NCI tumour cell line growth inhibition, 48 h; in the data active = GI50 below about 0.43 µM; inactive = the rest
The reply should name one outcome from active, inactive

Take a look at these entries with their results.
• Oc1c(CN2CCCC2)cc(COCc2ccc(Br)cc2)c2cccnc12 = inactive
• O=C(c1ccco1)c1nc2cc(F)ccc2[n+]([O-])c1C(F)(F)F = inactive
• CC/C=C\C/C=C\C[C@H](O)C/C=C1/C(=O)C=C[C@@H]1C/C=C\CCCC(=O)O = inactive

Field: outcome | Entry: CO/N=C(\C)c1cccc(Nc2cc(-c3ccccc3)nc3c(O)cccc23)c1
inactive

I'd appreciate the recorded outcome for COc1ccc(C2=NN(C(=O)c3cc(OC)c(OC)c(OC)c3)C(c3ccc(Cl)cc3)C2)cc1OC (configuration not stated) from this test.
inactive

Given CN(N=O)C(=O)N[C@@H](C=O)[C@@H](O)[C@H](O)[C@H](O)CO , state the outcome it received in this test.
inactive

Write down the call the test reported for this molecule. Item: O=C1c2ccccc2C(=Cc2ccccc2)c2ccccc21
inactive

Could you please tell me the result logged for C/C(=N\N=C(\[Se])N1CCN(c2ccccn2)CC1)c1ccccn1 in this assay?
active

# outcome recorded in this test, key = CNC(=O)c1ccc2cc(C3(O)CCn4cncc43)ccc2c1 (configuration not stated)
inactive

Check the results log: what was the call for COc1ccc2nc3cc(Cl)ccc3c(N3CCN(c4ccnc(N5CCOCC5)n4)CC3)c2c1 ?
inactive

Test call for this molecule, please: Cc1cnc(/C=N\NC(N)=S)c2cccc(N)c12
inactive

Per the records of this test, what outcome belongs to CCOC(=O)c1c2c(n(Cc3ccccc3)c1C)-c1ccccc1C(=O)C2=O ?
inactive
